As shown below, each of these compounds has a reported melting point value.

Some entries whose results are on file:
CC(Cl)OC(=O)C=Cc1cc(N=C=O)ccc1Cl (configuration not stated)
48 to 50 °C
CCc1c(C)[nH]c2c1C(=S)C1CNCCC1C2 (configuration not stated)
190 to 194 °C
COC1C(c2ccccc2)=C(c2ccc(S(C)(=O)=O)cc2)C1(C)C (configuration not stated)
130 to 132 °C
CCOC(=O)C(C(=O)COC(C)C)C1c2ccccc2C(=O)N1c1ccc2ccc(Cl)nc2n1 (configuration not stated)
205 °C
CN(C)CC1Cc2ccc(NC(=O)c3ccc(-c4ccc(Cl)cc4)cc3)cc2C1 (configuration not stated)
192 to 194 °C
COCCOc1cc([N+](=O)[O-])c2[nH]c(C(=O)O)cc2c1
192 to 193 °C

# compound O=C1c2ccccc2C(=O)N1C[C@H](O)CCl ; its melting point = 100 to 101 °C

# compound COC(=O)c1ccc(OC)c2cc(OC)ccc12 ; its melting point = 102 to 104 °C

# compound CCc1c(-c2ccc(OCc3ccccc3)cc2)cn2cccc(CO)c12 ; its melting point = 144 to 145 °C

# compound CC(=O)c1ccc(CCN2CCN(c3ccc(Cl)cc3)CC2)cc1 ; its melting point = 141 to 143 °C

# compound O=c1[nH]c2cc(Cl)cc(Cl)c2c(=O)n1Cc1ccc([N+](=O)[O-])cc1 ; its melting point = 227 to 230 °C

# compound O=C(Nc1cccc2c1CC(O)CC2)c1ccc(-c2ccc(F)c(F)c2)cc1 (configuration not stated) ; its melting point = 210 to 213 °C
